- target-entity: HIV Env, isolate CNE19 (HIV)
- assay: cell-based or functional assay
Quick list: IC80 (µg/ml) with constrains per entry.
Respond numerically; units are µg/mL and should not be typed.

Please review the following examples before continuing.
ePGDM5 (antibody, V domains shown) VH: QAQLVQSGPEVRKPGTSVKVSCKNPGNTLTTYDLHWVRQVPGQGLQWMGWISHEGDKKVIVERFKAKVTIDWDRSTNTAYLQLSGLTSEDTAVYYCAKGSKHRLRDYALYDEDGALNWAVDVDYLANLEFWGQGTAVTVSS VL: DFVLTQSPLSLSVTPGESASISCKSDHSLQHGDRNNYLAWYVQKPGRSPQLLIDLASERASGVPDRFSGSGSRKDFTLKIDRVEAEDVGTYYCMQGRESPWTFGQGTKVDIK    0.012
ePGDM13 (antibody, V domains shown) VH: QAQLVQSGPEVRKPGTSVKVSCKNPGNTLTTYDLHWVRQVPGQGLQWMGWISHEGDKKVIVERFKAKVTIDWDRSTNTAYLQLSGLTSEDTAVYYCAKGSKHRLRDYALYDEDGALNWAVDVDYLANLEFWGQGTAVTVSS VL: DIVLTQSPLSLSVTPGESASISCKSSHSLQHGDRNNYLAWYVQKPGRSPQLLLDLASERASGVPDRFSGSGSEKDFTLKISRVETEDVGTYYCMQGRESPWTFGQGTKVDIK    0.013

## Task Looking for the measured IC80 (µg/ml) with constrains of ePGDM9 (antibody, V domains shown) VH: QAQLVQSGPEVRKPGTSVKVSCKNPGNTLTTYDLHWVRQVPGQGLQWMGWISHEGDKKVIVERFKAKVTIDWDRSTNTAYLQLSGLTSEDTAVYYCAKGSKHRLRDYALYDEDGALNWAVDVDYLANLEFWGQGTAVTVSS VL: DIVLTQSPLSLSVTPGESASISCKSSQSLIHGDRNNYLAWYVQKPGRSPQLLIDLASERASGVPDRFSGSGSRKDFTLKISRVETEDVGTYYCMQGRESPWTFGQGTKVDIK , can you help?
## Result 0.012

## Task I have this binder here, PGDM1400 (antibody, V domains shown) VH: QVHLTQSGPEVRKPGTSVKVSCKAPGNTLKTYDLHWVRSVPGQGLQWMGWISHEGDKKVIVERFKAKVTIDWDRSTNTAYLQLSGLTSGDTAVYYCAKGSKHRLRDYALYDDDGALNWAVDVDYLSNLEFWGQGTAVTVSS VL: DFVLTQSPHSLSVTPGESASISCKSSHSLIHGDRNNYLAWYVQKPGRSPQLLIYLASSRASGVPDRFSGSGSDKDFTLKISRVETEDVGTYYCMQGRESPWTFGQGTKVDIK , and I need its recorded IC80 (µg/ml) with constrains.
## Result 0.019
